- Tested on: KRAS patient-derived spheroids with HUVEC/MSC, viability;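 further: spheroids exposed to agents for seven days before readout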
- Assay text: Anticancer human tumor 941728-121-R-J1-PDC patient-derived lung adenocarcinoma cell line growth inhibition [KRAS2]
- Condition label: curve of first compound; second compound 0.1 µM
pIC50: −log10 of the molar value.
Assay readout: pIC50

In: pIC50 for COc1cc(Nc2ncc3c(n2)-c2ccc(Cl)cc2C(c2c(F)cccc2OC)=NC3)ccc1C(=O)O + C=CC(=O)N1CCN(c2nc(=O)n(-c3c(C)ccnc3C(C)C)c3nc(-c4c(O)cccc4F)c(F)cc23)C(C)C1 ?
Out: > 7.50

In: pIC50 for CCNC(=O)CC1N=C(c2ccc(Cl)cc2)c2cc(OC)ccc2-n2c(C)nnc21 (stereo unspecified) + CC1OCC2(CCN(c3cnc(Sc4ccnc(N)c4Cl)c(N)n3)CC2)C1N ?
Out: > 7.50

In: pIC50 for CC(C)n1nc(-c2ccc3oc(N)nc3c2)c2c(N)ncnc21 + C=CC(=O)N1CCN(c2nc(OCC3CCCN3C)nc3c2CCN(c2cccc4cccc(C)c24)C3)CC1CC#N ?
Out: > 9.50

In: pIC50 for CN(C)C/C=C/C(=O)Nc1cc2c(Nc3ccc(F)c(Cl)c3)ncnc2cc1O[C@H]1CCOC1 + COc1cc2nc(C)nc(NC(C)c3cc(N)cc(C(F)(F)F)c3)c2cc1OC1CCOC1 ?
Out: 9.05

In: pIC50 for O=C(c1cc(Cc2n[nH]c(=O)c3ccccc23)ccc1F)N1CCN(C(=O)C2CC2)CC1 + C=CC(=O)N1CCN(c2nc(OCC3CCCN3C)nc3c2CCN(c2cccc4cccc(C)c24)C3)CC1CC#N ?
Out: > 7.50

In: pIC50 for CC1COCCN1c1cc(-c2ccnn2C)c2ccnc(-c3ccn[nH]3)c2n1 (stereo unspecified) + CC1OCC2(CCN(c3cnc(Sc4ccnc(N)c4Cl)c(N)n3)CC2)C1N ?
Out: > 8.00

In: pIC50 for CC1(C)CCC(CN2CCN(c3ccc(C(=O)NS(=O)(=O)c4ccc(NCC5CCOCC5)c([N+](=O)[O-])c4)c(Oc4cnc5[nH]ccc5c4)c3)CC2)=C(c2ccc(Cl)cc2)C1 + CNCc1ccccc1-c1csc(C(C)Nc2nc(C)nc3cc(OC)c(OC)cc23)c1 ?
Out: > 7.50

In: pIC50 for CCNC(=O)CC1N=C(c2ccc(Cl)cc2)c2cc(OC)ccc2-n2c(C)nnc21 (stereo unspecified) + COc1cc2nc(C)nc(NC(C)c3cc(N)cc(C(F)(F)F)c3)c2cc1OC1CCOC1 ?
Out: 7.44

In: pIC50 for CCN1CCN(Cc2ccc(Nc3ncc(F)c(-c4cc(F)c5nc(C)n(C(C)C)c5c4)n3)nc2)CC1 + CNCc1ccccc1-c1csc(C(C)Nc2nc(C)nc3cc(OC)c(OC)cc23)c1 ?
Out: 8.21

In: pIC50 for COc1cc(Nc2ncc3c(n2)-c2ccc(Cl)cc2C(c2c(F)cccc2OC)=NC3)ccc1C(=O)O + COc1cc2nc(C)nc(NC(C)c3cc(N)cc(C(F)(F)F)c3)c2cc1OC1CCOC1 ?
Out: > 7.50

In: pIC50 for COc1cc2nccc(Oc3ccc(NC(=O)C4(C(=O)Nc5ccc(F)cc5)CC4)cc3)c2cc1OC + COc1cc2nc(C)nc(NC(C)c3cc(N)cc(C(F)(F)F)c3)c2cc1OC1CCOC1 ?
Out: 6.84
